- Tested on: P. aeruginosa MB9798 (efflux+, IMP-1 plasmid)
- Condition Context: efflux + (MB9798) strain; imipenem at 2 μg/mL; in the presence of a class A, C, D serine β-lactamase inhibitor closely related to relebactam
Property: MB9798 MITC95 P. aeruginosa uM Efflux WT; scope: individual molecules
Endpoint: MB9798 MITC95 P. aeruginosa uM Efflux WT (µM)

[[record]]
molecule = "CS(=O)(=O)CCN1CCN(c2ccc(S(=O)(=O)NC[C@H](O)CN)c(S(N)(=O)=O)c2-c2nn[nH]n2)CC1"
value_observed = 12.50

[[record]]
molecule = "NC[C@@H]1CCCN(c2ccc(S(=O)(=O)N[C@@H]3CCNC3)c(S(N)(=O)=O)c2-c2nnn[nH]2)C1"
value_observed = 6.25

[[record]]
molecule = "NC[C@@H]1CCN(c2ccc(S(=O)(=O)N[C@@H]3CCNC3)c(S(N)(=O)=O)c2-c2nn[nH]n2)C[C@@H]1F (racemic)"
value_observed = 0.78

